Record form. Attribute: TGI. Fill in for each entry.
system: CAKI-1 renal; assay: NCI tumour cell line growth inhibition, 48 h

Prompt: // map N#Cc1cnc2cc(OC[C@@H](O)CO)c(NC(=O)C3CCCC3)cc2c1Nc1ccc(OCc2cccc(F)c2)c(Cl)c1 to recorded TGI (system: CAKI-1 renal)
Response: > 50 µM

Prompt: Now the same for N#Cc1ccc(-c2c(-c3ncn[nH]3)sc(N3CCOCC3)c2C#N)c(F)c1
Response: 15.6 µM

Prompt: And COc1ccc2c3c([nH]c(=O)c2c1C(=O)O)-c1ccccc1CC3 ?
Response: > 100 µM

Prompt: // same read-out, input: CCCCCCCCOCC(O)CO (stereo not drawn)
Response: > 100 µM

Prompt: Same question, c1csc(-c2nccc3c2[nH]c2ccccc23)c1 this time
Response: 71.5 µM

Prompt: Further, for O=C(c1ccco1)N(C(=S)N1CCN(c2ccccc2)CC1)C1CCCCC1 ?
Response: > 100 µM

Prompt: Another: CCc1c2cc(OC)c(OC)cc2cc2c3cc(OC)c(OC)cc3cc[n+]12 (tested in a mixture with another compound)
Response: > 73.4 µM

Prompt: # iterate: Cc1cccc(C)c1NC(=O)CCc1nnc2s/c(=C\c3ccc(N(C)C)cc3)c(=O)n12
Response: > 100 µM

Prompt: And what about the compound CCOC(=O)C1C=C2O[C@@H]3OC4(CCCCC4)O[C@@H]3C2C2C(=O)CCC(=O)[C@@]12C(=O)OC (stereo partly drawn) ?
Response: > 100 µM

Prompt: Can you check O=C1N2Cc3c4ccc5c3CN3C(=O)N6Cc7c(ccc(c7CN1C6(c1ccccc1)C23c1ccccc1)OCCOCCOc1cc(Br)c(Br)cc1OCCOCCO4)OCCOCCOc1cc(Br)c(Br)cc1OCCOCCO5 (stereo not drawn) next?
Response: > 100 µM

Prompt: Param item: CC[C@@]1(OC(=O)C(N)CCCCN)C(=O)OCc2c1cc1n(c2=O)Cc2cc3ccccc3nc2-1 (stereo partly drawn)
Response: 0.158 µM

Prompt: Now try NC(=S)N=Nc1c(O)[nH]c2c(Cl)cc(Cl)cc12 .
Response: > 100 µM

Prompt: And what about the compound N#C/C(c1nc2ccccc2[nH]1)=c1\s/c(=C(/N)O)c(=N)n1-c1ccccc1 ?
Response: > 100 µM

Prompt: Check Nc1c(C(=O)Nc2ccccn2)sc2nc3c(cc12)C(O)CCC3 (stereo not drawn) too.
Response: > 50 µM

Prompt: Queued: CCOC(=O)Nc1nc2ccccc2[nH]1
Response: > 100 µM

Prompt: Quick one: CC(=O)Nc1ccc2c3c(cc(O)c2c1)N(C(=O)CCCCC(=O)N1CC(CCl)c2c1cc(O)c1cc(NC(C)=O)ccc21)CC3CCl (stereo not drawn)
Response: 18.1 µM

Prompt: Now consider O=C(Nc1cccc(-n2cc(-c3ccncc3)c(-c3ccc(O)c(Cl)c3)n2)c1)c1ccc2c(c1)OCCO2 .
Response: > 100 µM

Prompt: And what about the compound Cc1cn(C2C=CC(COP(=O)(OCc3ccc([N+](=O)[O-])o3)N(C)CCCCCl)O2)c(=O)[nH]c1=O (stereo not drawn) ?
Response: 37 µM

---

tested on: SK-MEL-2 melanoma; assay: NCI tumour cell line growth inhibition, 48 h
Exercise: for every item that follows, state its recorded TGI.

Prompt: For the compound CNCCCNC(=S)Cn1cc(C)c(=O)[nH]c1=O , what TGI is on record?
Response: > 74.4 µM

Prompt: Another compound: COc1cccc(-c2nn(-c3ccccc3)cc2-c2ccnc(NCCCNC(=O)c3cccc(C(F)(F)F)c3)c2)c1
Response: 23.6 µM

Prompt: And what about the compound CC1=NN(c2nc(N)nc(CSc3cc(Cl)c(C)cc3S(N)(=O)=O)n2)C(C)(C)C1 ?
Response: > 10 µM

Prompt: Record: O=C1CNC(=O)/C(=C/c2c[nH]c3ccccc23)N1
Response: > 100 µM

Prompt: Also S=C=Nc1ccc(CSc2nc3ccccc3[nH]2)cc1 ?
Response: 34.8 µM

Prompt: // repeat for N#CC1=C(N)NC(=S)NC1c1ccc(-c2ccc(-c3nc4ccccc4o3)cc2)s1 (stereo unspecified) and report
Response: 28.8 µM

Prompt: Repeat with Cc1cc(C)c2c(n1)S(=O)(=O)N(CCCN1CCN(c3cccc(Cl)c3)CC1)/C(=C(\O)c1ccccc1)C2=O
Response: > 100 µM

Prompt: Try CC1(C)CCCC2(C)C3C(O)CC2(C)C(O)C31 (stereo unspecified) next.
Response: > 100 µM

Prompt: Entry to check: O=C1C2=Cc3ccccc3OC2(O)Oc2ccccc21 (stereo unspecified)
Response: > 100 µM

Prompt: Now the compound Cc1ccc(/C=C/C(=N/NC(=O)N/N=C(/C=C/c2ccc(C)cc2)C(C)C)C(C)C)cc1
Response: > 10 µM

Prompt: Same again, this time with Clc1cc2ccccc2c2ccccc12
Response: 73.3 µM

---

test system: NCI-H460 lung; test: NCI tumour cell line growth inhibition, 48 h
Answer each item with its documented TGI.
Enter your answer as a number in µM; do not include the unit.

Prompt: Item Cc1cn(C2C=CC(COP(=O)(OCc3ccc([N+](=O)[O-])o3)N(C)CCCCCl)O2)c(=O)[nH]c1=O (configuration not stated) has what recorded TGI?
Response: 23.6

Prompt: And the next one, C[C@]12CC[C@@H]3c4ccc(O)cc4CC[C@H]3[C@@H]1CC[C@@H]2NS(=O)(=O)c1ccc(Br)cc1 ?
Response: 4.81

Prompt: Another molecule to look at: Nc1ccccc1C#C/C=C\C#CC#C/C=C\C#Cc1ccccc1N
Response: 25.6

Prompt: Same for CC(C)(C)OC(=O)NCCCCn1c2c(c3ccccc3c1=O)C(=O)c1ccccc1-2
Response: 34.8

Prompt: What about this molecule? CC(C)(C)c1cc(C(=O)Nc2ccc(C(=O)NCCN)cc2)cc(C(C)(C)C)c1
Response: 3.73

Prompt: Now consider CO[C@@H]1CCN(c2nccc(Nc3cc4c(C(C)C)ccc(N5CC(CS(C)(=O)=O)[C@H]5C)c4cn3)n2)C[C@@H]1F (some centres not stated) and answer again.
Response: 20.5

Prompt: Could you do the same for N#CC1=C(N)NC(=S)NC1c1ccc(-c2ccc(-c3nc4ccccc4o3)cc2)s1 (configuration not stated) , please?
Response: 15.9

Prompt: CCOC(=O)C(C)Sc1nnc(COc2ccc(Cl)cc2)n1-c1ccccc1 (configuration not stated) ?
Response: 31.6

---

Kindly supply the reported TGI values for the records listed here.
system: HCT-15 colon; assay: NCI tumour cell line growth inhibition, 48 h
Supply the numeric figure in µM, leaving out any unit text.

Prompt: Requested read-out: TGI. Entry: O=c1c2cc(Br)cc(Br)c2nc(CCCl)n1-c1ccc(O)c([N+](=O)[O-])c1
Response: 38.1

Prompt: Also, CC(=O)Oc1ccc2c(c1)[C@@]1(C)CCCC(C)(C)[C@@H]1CC2 please.
Response: 37.3

Prompt: What would you report for N#CCCN(CCC#N)c1ccc(C(N=Nc2ccc(Cl)cc2)=Nc2ccccc2)cc1 ?
Response: 21.2

Prompt: Entry to check: COCCOCCOCc1n(Cc2ccc3ccccc3c2)c2ccccc2[n+]1Cc1ccc2ccccc2c1
Response: 3.36

Prompt: Continue with O=[N+]([O-])C1=Cc2cc(Cl)ccc2OC1c1cccc2ccccc12 (configuration not stated)
Response: 2.95

Prompt: Also CO[C@@H]1CCN(c2nccc(Nc3cc4c(C(C)C)ccc(N5CC(CS(C)(=O)=O)[C@H]5C)c4cn3)n2)C[C@@H]1F (some centres not stated) ?
Response: 14.4

Prompt: Try the compound Cc1ccc(S(=O)(=O)OCC#CCOS(=O)(=O)c2ccc(C)cc2)cc1
Response: 14.9

Prompt: Okay, and N#Cc1ccc(-c2c(-c3ncn[nH]3)sc(N3CCOCC3)c2C#N)c(F)c1 ?
Response: 18.5

---

test system: SNB-75 CNS; experiment: NCI tumour cell line growth inhibition, 48 h
*1 amine or outer side, *2 acyl side, *3 side chain or, on linkers, in order; H or OH if unused. Where a SMILES comes first, the peptide text is derived from it. [ ]: non-standard residue; d: D form. The star is where a group is joined. ξ: configuration not given here. NMeY = CN[C@@H](Cc1ccc(O)cc1)C(=O)O; Ethylenediamine = C(CN[*:2])N[*:1]; ξNMeL = CNC(CC(C)C)C(=O)O; Cbz = O=C(OCc1ccccc1)*; Lac = C[C@H](O)C(=O)O; ξA = CC(N)C(=O)O
observation-type: TGI

Prompt: I'm curious: which TGI was measured for Cn1c2c(c3ccccc31)CCN=C2C1CCCOC1=O (stereo not given) tested on SNB-75 CNS?
Response: > 100 µM

Prompt: Consider next the molecule O=C1CCCC/C1=C1/SC(=Nc2ccccc2)C(=Nc2ccccc2)N1c1ccccc1 in the same way.
Response: > 100 µM

Prompt: Now consider O=C1Nc2cc(-c3cccc(O)c3)ccc2/C1=C/c1ccc[nH]1 and answer again.
Response: 4.53 µM

Prompt: Again, but for Nc1nonc1-c1nc2ccccc2n1Cc1ccc(F)cc1
Response: 9.52 µM

Prompt: Now consider Cn1c(=O)c2sc3c4sc5c(=O)n(C)c6ccccc6c5c4sc3c2c2ccccc21 and answer again.
Response: > 100 µM

Prompt: Request: CN(C)C1(N(C)C)Oc2c(c(=O)n(C)c(=O)n2C)C(c2ccc(C(F)(F)F)cc2)C1(F)F (stereo not given)
Response: > 100 µM

Prompt: Quick one: Cc1ccc(S(=O)(=O)NC(=O)Nc2cccc(S(N)(=O)=O)c2)cc1
Response: > 100 µM

Prompt: Request: CN(C)CCC(/C=C/c1ccccc1)=N\Nc1ccc(Cl)c(Cl)c1
Response: 5.9 µM

Prompt: Another molecule to check: C/C(=N\NC(N)=S)c1ccc(C)c(C)c1
Response: > 100 µM

Prompt: Now consider O=C1C[C@H](COCc2ccccc2)NC(=O)C[C@H](COCc2ccccc2)NC(=O)C[C@H](COCc2ccccc2)N1 and answer again.
Response: 8.27 µM

Prompt: Here is the next molecule: O=S(=O)(O)c1cc(S(=O)(=O)O)c2cc(N=Nc3c(O)ccc4ccccc34)ccc2c1
Response: > 100 µM

Prompt: Queued: Cc1cccc(C)c1NC(=O)CCC/C(CC(=O)c1ccc(F)cc1)=N\NC(=O)C(=O)NN
Response: > 100 µM

Prompt: Next molecule: Clc1cc2ccccc2c2ccccc12
Response: > 100 µM

Prompt: Thanks! And COc1ccc(C[C@@H](C(=O)NCCNC(=O)C(CC(C)C)N(C)C(=O)[C@@H]2CCCN2C(=O)[C@H](C)O)N(C)C(=O)[C@@H]2CCCN2C(=O)[C@H](CC(C)C)NC(=O)C(C)NC(=O)OCc2ccccc2)cc1 (stereo not given in full) (Cbz-[ξA]LP[NMeY](Me)-{Ethylenediamine-ξNMeL-Pro-Lac}) ?
Response: > 100 µM

Prompt: What do you get for CNC(=O)N(CCC#N)CCN(C(=O)N(C)C)c1ccccc1 ?
Response: > 100 µM

Prompt: How about this molecule: Nc1ccccc1C#C/C=C\C#CC#C/C=C\C#Cc1ccccc1N
Response: 22 µM

Prompt: Next molecule up: OC(c1ccc(Cl)cc1)(c1ccc(Cl)cc1)c1cncnc1
Response: 52.7 µM

Prompt: Try this molecule next: COC(=O)c1cccc2c3ccccc3c3ccccc3c12
Response: > 100 µM

Prompt: Now give it for CCCCC(C)/C=C/C(=O)C1=C(O)/C(=C/C(=O)O)OC1=O (stereo not given) too.
Response: > 100 µM

Prompt: What about this molecule? CCC/C=C\C=C\C1(NS(=O)(=O)c2ccc(C)cc2)CCC(C(C)(C)C)CC1 (stereo not given)
Response: 72.1 µM
